# concentration at 1 h per entry
- protocol.description: Drug concentration in brain of C57 mouse at 20 mg/kg, ip measured after 1 hr by LC/MS-MS analysis
- Assay type: ADME, organism-based
- assay.context: read-out: Ct
reported.endpoint: concentration at 1 h

>>> reported_value("COc1ccc2c(c1)N(Cc1ccc(C(=O)NO)cc1)CCCC2")
"957 ng/mL"
>>> reported_value("O=C(NO)c1ccc(CN2CCCSc3ccccc32)cc1")
"220 ng/mL"
>>> reported_value("O=C(NO)c1ccc(CN2CCCc3cc(Cl)ccc32)cc1")
"468 ng/mL"
>>> reported_value("O=C(NO)c1ccc(CN2CCCOc3ccccc32)cc1")
"111 ng/mL"

====

Observed IC50 values for Histone deacetylase 1 (Homo sapiens) are listed in what follows.
reported.endpoint: IC50 (nM)

>>> reported_value("O=C(NO)c1ccc(CN2CCCCc3ccc(-c4ccccc4)cc32)cc1")
706
>>> reported_value("COc1ccc(Br)c2c1CCN(Cc1ccc(C(=O)NO)cc1)CC2")
385
>>> reported_value("O=C(NO)c1ccc(CN2CCCCc3ccccc32)cc1")
392
>>> reported_value("O=C(NO)c1ccc(CN2CCCc3ccccc3C2)cc1")
1000
>>> reported_value("O=C(NO)c1ccc(CN2CCCCc3ccc(C4CC4)cc32)cc1")
509
>>> reported_value("COc1ccc(-c2ccccc2)c2c1CCN(Cc1ccc(C(=O)NO)cc1)CC2")
826
>>> reported_value("O=C(NO)c1ccc(CN2CCCCc3ccc(F)cc32)cc1")
761
>>> reported_value("COc1cc2c(cc1OC)N(Cc1ccc(C(=O)NO)cc1)CCCC2")
295
>>> reported_value("COc1ccc(C2CC2)c2c1CCN(Cc1ccc(C(=O)NO)cc1)CC2")
502

====

- protocol.description: in vivo
- assay.context: C57, mouse, brain/plasma, ip, 20 mg/kg
reported.endpoint: Kp at 4 h

>>> reported_value("O=C(NO)c1ccc(CN2CCCOc3ccccc32)cc1")
2.88
>>> reported_value("COc1ccc2c(c1)N(Cc1ccc(C(=O)NO)cc1)CCCC2")
2.29
>>> reported_value("O=C(NO)c1ccc(CN2CCCSc3ccccc32)cc1")
2.35

====

- protocol.description: Ratio of drug concentration in brain to plasma of mouse at 5 to 50 mg/kg, ip after 2 hrs by HPLC/MS-MS analysis
- Type: ADME, organism-based
- assay.context: dose 5-50 mg/kg, read-out: BPR
reported.endpoint: Kp at 2 h

>>> reported_value("CN1CCc2c(c3ccccc3n2Cc2ccc(C(=O)NO)cc2)C1 [TUBASTATIN A]")
0.18
>>> reported_value("O=C(NO)c1cnc(NC2(c3ccccc3)CC2)nc1")
1.22
>>> reported_value("O=C(NO)c1cnc(NC2(c3cccc(F)c3)CCCCC2)nc1")
1.26

====

- protocol.description: Drug concentration in brain of C57 mouse at 20 mg/kg, ip measured after 4 hrs by LC/MS-MS analysis
- Type: ADME, organism-based
- assay.context: read-out: Ct
concentration at 4 h by entry:
reported.endpoint: concentration at 4 h (ng/mL)

>>> reported_value("O=C(NO)c1ccc(CN2CCCOc3ccccc32)cc1")
12.2
>>> reported_value("O=C(NO)c1ccc(CN2CCCc3cc(Cl)ccc32)cc1")
13.1
>>> reported_value("COc1ccc2c(c1)N(Cc1ccc(C(=O)NO)cc1)CCCC2")
18.7
>>> reported_value("O=C(NO)c1ccc(CN2CCCSc3ccccc32)cc1")
16.6

These measurements were taken from ChEMBL document CHEMBL4811245.
